B1: library; numbered along this chain (parent)
chain: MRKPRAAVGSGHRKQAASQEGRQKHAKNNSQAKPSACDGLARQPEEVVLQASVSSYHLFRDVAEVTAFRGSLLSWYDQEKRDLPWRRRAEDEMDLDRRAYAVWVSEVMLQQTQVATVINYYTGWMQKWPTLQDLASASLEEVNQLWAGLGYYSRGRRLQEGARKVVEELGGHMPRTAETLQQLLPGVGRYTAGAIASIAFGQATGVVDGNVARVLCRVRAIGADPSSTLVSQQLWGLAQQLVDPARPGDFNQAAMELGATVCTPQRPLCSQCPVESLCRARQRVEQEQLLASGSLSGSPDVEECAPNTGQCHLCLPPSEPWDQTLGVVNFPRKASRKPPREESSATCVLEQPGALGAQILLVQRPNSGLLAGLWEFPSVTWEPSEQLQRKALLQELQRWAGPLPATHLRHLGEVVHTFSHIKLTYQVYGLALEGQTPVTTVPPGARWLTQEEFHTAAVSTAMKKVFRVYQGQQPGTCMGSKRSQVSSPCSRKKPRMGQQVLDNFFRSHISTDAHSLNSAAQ

# Variants of: B1
# run.description: 8OG:A repair function score (normalized; synonymous = 0, nonsense = -1) (normalized log-likelihood score); higher = more repair activity (WT-like);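 further: cells sorted at 72 h after reporter transfection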
# run.parameters: with 8OG:A DNA repair reporter (GFP) in HEK-293 MUTYH KO cells
Think of -0.3 as a floor: if 8OG:A repair function score stands on it or above, it is 1; beneath it, -1.

{"variant.notation": "G170W", "answer.label": 1}
{"variant.notation": "Y152S", "answer.label": -1}
{"variant.notation": "Q351Y", "answer.label": 1}
{"variant.notation": "L516F", "answer.label": 1}
{"variant.notation": "G161L", "answer.label": -1}
{"variant.notation": "A63P", "answer.label": 1}
{"variant.notation": "W75Q", "answer.label": -1}
{"variant.notation": "P306R", "answer.label": 1}
{"variant.notation": "H416V", "answer.label": 1}
{"variant.notation": "A194W", "answer.label": -1}
{"variant.notation": "N143A", "answer.label": -1}
{"variant.notation": "A147H", "answer.label": 1}
{"variant.notation": "V415K", "answer.label": -1}
{"variant.notation": "L237A", "answer.label": -1}
{"variant.notation": "F466H", "answer.label": -1}
{"variant.notation": "L158E", "answer.label": -1}
{"variant.notation": "K464T", "answer.label": -1}
{"variant.notation": "L131M", "answer.label": 1}
{"variant.notation": "G155I", "answer.label": -1}
{"variant.notation": "K127N", "answer.label": 1}
{"variant.notation": "S231A", "answer.label": 1}
{"variant.notation": "E287H", "answer.label": 1}
{"variant.notation": "Q310D", "answer.label": 1}
{"variant.notation": "V485E", "answer.label": 1}
{"variant.notation": "L180E", "answer.label": -1}
{"variant.notation": "A137S", "answer.label": 1}
{"variant.notation": "N307I", "answer.label": 1}
{"variant.notation": "A223C", "answer.label": 1}
{"variant.notation": "W103C", "answer.label": -1}
{"variant.notation": "Y190Q", "answer.label": -1}
{"variant.notation": "P339G", "answer.label": 1}
{"variant.notation": "E287L", "answer.label": 1}
{"variant.notation": "E413C", "answer.label": 1}
{"variant.notation": "S54I", "answer.label": 1}
{"variant.notation": "W146I", "answer.label": 1}
{"variant.notation": "Y121I", "answer.label": -1}
{"variant.notation": "E451Q", "answer.label": 1}
{"variant.notation": "P338T", "answer.label": 1}
{"variant.notation": "S231Y", "answer.label": 1}
{"variant.notation": "T455E", "answer.label": 1}
{"variant.notation": "C272N", "answer.label": -1}
{"variant.notation": "P316D", "answer.label": 1}
{"variant.notation": "P44H", "answer.label": 1}
{"variant.notation": "S294L", "answer.label": 1}
{"variant.notation": "G171S", "answer.label": 1}
{"variant.notation": "K3Q", "answer.label": 1}
{"variant.notation": "A457I", "answer.label": -1}
{"variant.notation": "Q388M", "answer.label": 1}
{"variant.notation": "S296Y", "answer.label": 1}
{"variant.notation": "R506K", "answer.label": 1}
{"variant.notation": "V427M", "answer.label": -1}
{"variant.notation": "V441M", "answer.label": 1}
{"variant.notation": "L184V", "answer.label": 1}
{"variant.notation": "S487I", "answer.label": 1}
{"variant.notation": "E395G", "answer.label": 1}
{"variant.notation": "S138K", "answer.label": 1}
{"variant.notation": "H57F", "answer.label": -1}
{"variant.notation": "R219N", "answer.label": -1}
{"variant.notation": "R157L", "answer.label": 1}
{"variant.notation": "P185D", "answer.label": -1}
{"variant.notation": "Y76P", "answer.label": -1}
{"variant.notation": "R157D", "answer.label": -1}
{"variant.notation": "E285F", "answer.label": 1}
{"variant.notation": "L325P", "answer.label": -1}
{"variant.notation": "E285C", "answer.label": 1}
{"variant.notation": "K422Y", "answer.label": -1}
{"variant.notation": "S294C", "answer.label": 1}
{"variant.notation": "L501A", "answer.label": 1}
{"variant.notation": "R42P", "answer.label": 1}
{"variant.notation": "S74Y", "answer.label": 1}
{"variant.notation": "S270W", "answer.label": 1}
{"variant.notation": "E178Q", "answer.label": 1}
{"variant.notation": "A203R", "answer.label": 1}
{"variant.notation": "P404V", "answer.label": 1}
{"variant.notation": "R189Q", "answer.label": 1}
{"variant.notation": "E168I", "answer.label": 1}
{"variant.notation": "L237V", "answer.label": -1}
{"variant.notation": "K80D", "answer.label": -1}
{"variant.notation": "L131P", "answer.label": 1}
{"variant.notation": "R97F", "answer.label": 1}
{"variant.notation": "G193P", "answer.label": -1}
{"variant.notation": "A253P", "answer.label": -1}
